- System: behaviors of compound-treated mice
- MEASUREMENT NOTES: Neuropharmacological Assay (SmartCube)
- Type: in vivo
- PARTICULARS: i.p. 15 min before behavioral test, most efficacious dose(s) of 3 doses
Counter-ions that a name gives are not always drawn.
QUANTITY: CE: cognitive enhancer (probability that activity matches class)

> print(dat)
                                    molecule                                 tgt        measurement
 1  NC[C@H]1OCCc2c(-c3ccccc3)cccc21 (single isomer, unassigned) [Compound 131, hydrochloride salt]  behaviors of compound-treated mice    + (LOQ ≤ + <5%)
 2  NCC1OCCc2c(-c3ccnnc3)cccc21 (stereo not shown) [Compound 61, hydrochloride salt]  behaviors of compound-treated mice    + (LOQ ≤ + <5%)
 3  CNC[C@H]1OCCc2ccc(-c3cccnc3)cc21 [Compound 4, dihydrochloride]  behaviors of compound-treated mice    + (LOQ ≤ + <5%)
 4  NC[C@@H]1OCCc2c(-c3c[nH]cn3)cccc21 (single isomer, unassigned) [Compound 112, hydrochloride salt]  behaviors of compound-treated mice    + (LOQ ≤ + <5%)
 5  NC[C@H]1OCCc2cccc(-c3cccnc3)c21 (single isomer, unassigned) [Compound 10, hydrochloride]  behaviors of compound-treated mice    + (LOQ ≤ + <5%)
 6  CNC[C@@H]1OCCCc2c(-c3ccncc3)cccc21 (single isomer, unassigned)  behaviors of compound-treated mice    + (LOQ ≤ + <5%)
 7  CNC[C@@H]1OCCc2c(-c3cc(C)nc(C)c3)cccc21 [Compound 124, dihydrochloride]  behaviors of compound-treated mice    + (LOQ ≤ + <5%)
 8  CNC[C@@H]1OCCc2c(-c3cocn3)cccc21 [Compound 102, HCl salt]  behaviors of compound-treated mice    + (LOQ ≤ + <5%)
 9  NC[C@@H]1OCCc2c(-c3cncs3)cccc21 (single isomer, unassigned) [Compound 70, hydrochloride salt]  behaviors of compound-treated mice    + (LOQ ≤ + <5%)
10  NCC1OCCc2c(-c3ccncn3)cccc21 (stereo not shown) [Compound 60, hydrochloride salt]  behaviors of compound-treated mice    + (LOQ ≤ + <5%)
11  CNC[C@H]1OCCc2c(-c3cnccn3)cccc21 (single isomer, unassigned)  behaviors of compound-treated mice    + (LOQ ≤ + <5%)
12        Cl.NC[C@@H]1OCCc2c(-c3ncco3)cccc21  behaviors of compound-treated mice  ++ (5% ≤ ++ <25%)
13  NCC1OCCc2ccc(-c3ccncn3)cc21 (stereo not shown) [Compound 57, hydrochloride]  behaviors of compound-treated mice  ++ (5% ≤ ++ <25%)
14  NC[C@@H]1OCCc2c(-c3cn[nH]c3)cccc21 [Compound 116, hydrochloride salt]  behaviors of compound-treated mice    + (LOQ ≤ + <5%)
15  NCC1OCCc2c(-c3cnoc3)cccc21 (stereo not shown) [Compound 64, hydrochloride salt]  behaviors of compound-treated mice    + (LOQ ≤ + <5%)
16  NC[C@@H]1OCCc2c(-c3ccncc3)cccc21 [Compound 19, hydrochloride salt]  behaviors of compound-treated mice  ++ (5% ≤ ++ <25%)

====

- System: behaviors of compound-treated mice
- MEASUREMENT NOTES: Neuropharmacological Assay (SmartCube)
- Format: in vivo
- PARTICULARS: i.p. 15 min before behavioral test, most efficacious dose(s) of 3 doses
Where a name gives a salt, the structure may show the parent alone.
QUANTITY: DP: anti-depressant (probability that activity matches class)

> print(dat)
                                    molecule        measurement
 1  CNC[C@@H]1OCCc2c(-c3cc(C)nc(C)c3)cccc21 [Compound 124, dihydrochloride]    + (LOQ ≤ + <5%)
 2  CNC[C@H]1OCCCc2c(-c3ccncc3)cccc21 (single isomer, unassigned) [Compound 149]  ++++ (50% ≤ ++++)
 3  CNCC1OCCc2c(-c3ccncn3)cccc21 (stereo not shown) [Compound 53, hydrochloride salt]  ++++ (50% ≤ ++++)
 4  NC[C@H]1OCCCc2c(-c3cncs3)cccc21 (single isomer, unassigned) [Compound 171, hydrochloride salt]    + (LOQ ≤ + <5%)
 5  CNC[C@@H]1OCc2c(-c3cccnc3)cccc21 [Compound 33, hydrochloride salt]  ++++ (50% ≤ ++++)
 6  NC[C@H]1OCc2c(-c3cccnc3)cccc21 [Compound 36, hydrochloride]  ++++ (50% ≤ ++++)
 7  NCC1OCCc2c(-c3ccnnc3)cccc21 (stereo not shown) [Compound 61, hydrochloride salt]  ++ (5% ≤ ++ <25%)
 8  CNC[C@@H]1OCCc2ccc(-c3ccncc3)cc21 [Compound 49, hydrochloride]  ++ (5% ≤ ++ <25%)
 9  CNC[C@@H]1OCCc2ccc(-c3cncnc3)cc21 (single isomer, unassigned) [Compound 26, hydrochloride]    + (LOQ ≤ + <5%)
10  CNC[C@H]1OCCc2c(-c3ncco3)cccc21 [Compound 105, dihydrochloride]  ++++ (50% ≤ ++++)
11  NC[C@@H]1OCCc2ccc(-c3cccnc3)cc21 (single isomer, unassigned) [Compound 11, hydrochloride]  ++++ (50% ≤ ++++)
12  NC[C@@H]1OCCc2c(-c3cn[nH]c3)cccc21 [Compound 116, hydrochloride salt]  ++++ (50% ≤ ++++)
13  NC[C@@H]1OCCc2c(-c3ccno3)cccc21 (single isomer, unassigned) [Compound 92, hydrochloride salt]  ++ (5% ≤ ++ <25%)
14  NCC1OCCc2c(-c3cnoc3)cccc21 (stereo not shown) [Compound 64, hydrochloride salt]  ++++ (50% ≤ ++++)
15  NC[C@@H]1OCCc2c(-c3c[nH]cn3)cccc21 (single isomer, unassigned) [Compound 112, hydrochloride salt]  ++ (5% ≤ ++ <25%)
16  CNC[C@H]1OCCc2c(-c3ccnnc3)cccc21 (single isomer, unassigned) [Compound 77, hydrochloride salt]  ++++ (50% ≤ ++++)
